Ref: patent US11932656B1

Listing of entries alongside the reported pIC50.
# test_target: human recombinant COX-2 (Homo sapiens)
# Sequence (P35354 18-604): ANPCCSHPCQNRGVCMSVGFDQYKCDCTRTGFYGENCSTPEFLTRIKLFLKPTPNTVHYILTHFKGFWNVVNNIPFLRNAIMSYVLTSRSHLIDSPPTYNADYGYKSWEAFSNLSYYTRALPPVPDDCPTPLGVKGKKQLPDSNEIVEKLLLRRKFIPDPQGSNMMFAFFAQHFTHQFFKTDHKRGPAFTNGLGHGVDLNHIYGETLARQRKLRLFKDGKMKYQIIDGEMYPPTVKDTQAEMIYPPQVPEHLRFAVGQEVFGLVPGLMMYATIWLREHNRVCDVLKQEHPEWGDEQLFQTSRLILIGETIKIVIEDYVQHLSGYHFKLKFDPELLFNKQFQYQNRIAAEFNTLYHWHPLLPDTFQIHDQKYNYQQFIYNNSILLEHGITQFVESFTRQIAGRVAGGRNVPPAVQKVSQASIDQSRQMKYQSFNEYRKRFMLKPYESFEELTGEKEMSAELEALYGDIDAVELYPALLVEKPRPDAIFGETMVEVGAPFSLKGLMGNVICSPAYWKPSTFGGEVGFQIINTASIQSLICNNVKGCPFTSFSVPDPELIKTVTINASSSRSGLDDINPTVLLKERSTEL
# assay_overview: COX Inhibitor Screening Assay, COX-2 (EIA of PGF2α)
# condition_info: human recombinant COX-2; Cayman COX inhibitor screening assay kit
pIC50: −log10 of the molar value.
outcome_measure: pIC50

INSERT INTO measurements (compound_structure, value_measured) VALUES
  ('Cc1sc2nc(NC(=O)c3ccc(F)cc3)[nH]c(=O)c2c1C', 3.99),
  ('Cc1sc2nc(NC(=O)c3ccccc3C(F)(F)F)[nH]c(=O)c2c1C', 3.72),
  ('Cc1sc2nc(Cc3ccc(F)cc3)[nH]c(=O)c2c1C', 4.37),
  ('COc1ccc(Cc2nc3sc(C)c(C)c3c(=O)[nH]2)cc1', 3.85);
